Measured TGI accompanies every entry in the list below.
- System: NCI/ADR-RES ovarian
- procedure text: NCI tumour cell line growth inhibition, 48 h

compound	units of measure	bound type	TGI
COc1cc2ccc(=O)oc2cc1O	µM	=	277
CSC1=C(N)C(=O)c2[nH]cc(CO)c2C1=N	µM	=	0.781
CCNCCCn1c2c(c3ccc(Cl)cc3c1=O)C(=O)c1cc(OC)cnc1-2	µM	=	2.53
COC(=O)C1CCC(=S)N1C(=O)c1ccccc1 (stereo unspecified)	µM	>	100
OCC(O)C(O)C(O)C(O)c1nc2ccc(Cl)cc2[nH]1 (stereo unspecified)	µM	>	100
CSCSSC	µM	>	100
NC(=O)N/N=C1/CCC(O)CC1CC(=O)O (stereo unspecified)	µM	>	100
NCCCN(CCCN(C(=O)Nc1ccccc1)c1ccccc1)C(=O)Nc1ccccc1	µM	>	100
O=C1C[C@@H](C(=O)OCc2ccccc2)NC(=O)C[C@@H](C(=O)OCc2ccccc2)NC(=O)C[C@@H](C(=O)OCc2ccccc2)N1	µM	>	100
O=C(N/N=C/C=C/c1ccc([N+](=O)[O-])o1)c1cc2ccccc2cc1O	µM	=	7.27
O=C(Nc1cccc(-n2cc(-c3ccncc3)c(-c3ccc(Cl)c(O)c3)n2)c1)Nc1cc(C(F)(F)F)cc(C(F)(F)F)c1	µM	=	5.67
